Numbers sourced from patent US20260116910A1.

For each record, write down the corresponding MRGPRX4 activation, Average.
Measured target: MRGPRX4 (Homo sapiens, UniProt Q96LA9)
Sequence (Q96LA9 whole entry): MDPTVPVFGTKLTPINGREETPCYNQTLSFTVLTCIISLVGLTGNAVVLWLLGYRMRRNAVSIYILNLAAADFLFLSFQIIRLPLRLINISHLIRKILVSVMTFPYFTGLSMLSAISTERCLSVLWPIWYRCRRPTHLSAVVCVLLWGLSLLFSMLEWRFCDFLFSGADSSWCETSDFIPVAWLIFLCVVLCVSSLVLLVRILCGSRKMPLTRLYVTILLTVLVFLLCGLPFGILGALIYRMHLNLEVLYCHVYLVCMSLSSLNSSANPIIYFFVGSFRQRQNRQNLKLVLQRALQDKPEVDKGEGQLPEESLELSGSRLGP
Method summary: MRGPRX4 activation, Fluo-8 Ca2+ FLIPR assay in HEK293T cells stably expressing MRGPRX4
Format: cell-based
Design: key: fluorescence change dF/F0
Measurement parameters: E3-6-2, 1st of 6 concentration columns (head not in rows shown)
Give a plain numeric answer without units written out.

Query :: Would you kindly share the measured MRGPRX4 activation, Average for CC[C@H]1[C@@H](O)[C@@H]2[C@H](CC[C@]3(C)[C@@H]([C@H](C)CCNC(=O)NS(=O)(=O)N4CC5CC5C4)CC[C@@H]23)[C@@]2(C)CCCC[C@@H]12 (stereo partly shown) [5-12] ?
Result :: 0.057

Query :: Would you kindly share the measured MRGPRX4 activation, Average for CCCCS(=O)(=O)NC(=O)NCC[C@@H](C)[C@H]1CC[C@H]2[C@@H]3[C@H](O)[C@H](CC)[C@@H]4CCCC[C@]4(C)[C@H]3CC[C@]12C [5-14] ?
Result :: 0.070

Query :: Would you kindly share the measured MRGPRX4 activation, Average for CC[C@H]1[C@@H](O)[C@@H]2[C@H](CC[C@]3(C)[C@@H]([C@H](C)CCNC(=O)NS(=O)(=O)N(C)C)CC[C@@H]23)[C@@]2(C)CCCC[C@@H]12 [5-15] ?
Result :: 0.087

Query :: Would you kindly share the measured MRGPRX4 activation, Average for CC[C@H]1[C@@H](O)[C@@H]2[C@H](CC[C@]3(C)[C@@H]([C@H](C)CCNC(=O)NS(=O)(=O)Cc4ccccc4)CC[C@@H]23)[C@@]2(C)CCCC[C@@H]12 [5-13] ?
Result :: 0.060

====

Measured target: UniProt:Q96RI1
Sequence (Q96RI1 1-476 isoform Q96RI1-1): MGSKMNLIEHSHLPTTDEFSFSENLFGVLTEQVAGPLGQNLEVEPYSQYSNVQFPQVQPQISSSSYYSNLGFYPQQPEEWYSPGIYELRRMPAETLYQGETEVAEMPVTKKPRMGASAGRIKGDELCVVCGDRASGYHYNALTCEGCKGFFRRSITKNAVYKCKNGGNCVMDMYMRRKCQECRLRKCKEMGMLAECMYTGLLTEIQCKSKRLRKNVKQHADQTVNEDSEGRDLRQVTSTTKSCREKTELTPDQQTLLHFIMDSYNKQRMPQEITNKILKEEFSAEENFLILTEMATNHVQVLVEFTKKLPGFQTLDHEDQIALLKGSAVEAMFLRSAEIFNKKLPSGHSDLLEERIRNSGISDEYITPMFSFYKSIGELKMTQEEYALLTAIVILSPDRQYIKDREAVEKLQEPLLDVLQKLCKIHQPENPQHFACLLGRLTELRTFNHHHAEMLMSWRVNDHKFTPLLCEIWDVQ
Method summary: Human FXR (NR1H4) agonist assessment, FXRE-NanoLuc reporter in HEK293T cells
Assay type: cell-based
Measurement parameters: FXR activation, HEK293T FXRE-NanoLuc reporter, 24 hr
Reported property: Efficacy (maximum measured induction of NanoLuc, normalized to CDCA set as 100%)

Query :: Find Efficacy (maximum measured induction of NanoLuc, normalized to CDCA set as 100%) (UniProt:Q96RI1) for the entry CC[C@H]1[C@@H](O)[C@@H]2[C@H](CC[C@]3(C)[C@@H]([C@H](C)CC#N)CC[C@@H]23)[C@@]2(C)CCCC[C@@H]12
Result :: C (100%<efficacy <=300%)

Query :: Find Efficacy (maximum measured induction of NanoLuc, normalized to CDCA set as 100%) (UniProt:Q96RI1) for the entry C[C@H](CC/C=C/C(=O)O)[C@H]1CC[C@H]2[C@@H]3CC[C@@H]4C[C@H](O)CC[C@]4(C)[C@H]3CC[C@]12C
Result :: C (100%<efficacy <=300%)
